Test system: CCRF-CEM
Assay: Antiproliferative activity against human CCRF-CEM cells assessed as reduction in cell viability after 72 hrs by MTT assay
Format: functional, cell-based
PROPERTY NAME: IC50 (µM)

Answered examples (10):
Request: Supply reported IC50 belonging to this molecule: COc1cc(-n2cccc2-c2cc3ccccc3s2)cc(OC)c1OC
Response: 2.92

Request: Complete the entry with IC50 for COc1cc(-n2cccc2-c2ccc(C)cc2)cc(OC)c1OC
Response: 2.43

Request: Provide measured IC50 value, entry: COc1ccc(-c2cccn2-c2cc(OC)c(OC)c(OC)c2)cc1Cl
Response: 2.91

Request: Indicate the recorded IC50 value for this molecule: COc1cccc(-n2cccc2-c2cc(OC)c(OC)c(OC)c2)c1
Response: 5.01

Request: Hello, please tell me recorded IC50 for this one: COc1cc(-n2cccc2-c2ccc(C)c(C)c2)cc(OC)c1OC
Response: 3.2

Request: Give a short answer stating reported IC50 for COc1cc(-c2cccn2-c2ccc(C)c(C)c2)cc(OC)c1OC .
Response: 3.51

Request: Tell me IC50 reported for COc1ccc(-c2c[nH]cc2-c2cc(OC)c(OC)c(OC)c2)cc1
Response: 0.117

Request: State its IC50: COc1cc(-n2cccc2-c2ccc(SC)cc2)cc(OC)c1OC
Response: 2.81

Request: Report measured IC50; entry is COc1cc(-c2cccn2-c2ccc3ccccc3c2)cc(OC)c1OC
Response: 1.41

Request: Let me know recorded IC50 for COc1ccc(-c2cccn2-c2cc(OC)c(OC)c(OC)c2)cc1C , thanks.
Response: 2.51

P. CCOc1ccc(-c2cccn2-c2cc(OC)c(OC)c(OC)c2)cc1
Q. COc1cc(-c2cccn2-c2cccc3ccccc23)cc(OC)c1OC
Request: When P and Q are compared, which has the higher number for IC50? Give the label of your selection.
Response: Q

====

Species on record: Bos taurus
Assay: Displacement of [3H]colchicine from bovine brain tubulin at 5 uM by DEAE-cellulose filter method relative to control
Format: tissue-based
PROPERTY NAME: inhibition (%)

Recorded inhibition, per entry:
Request: Quickly give me recorded inhibition for COc1cc(-c2c[nH]cc2-c2ccc(C)cc2)cc(OC)c1OC
Response: 83

Request: Name the recorded inhibition of the item COc1cc(-n2cccc2-c2ccc3ccccc3c2)cc(OC)c1OC in your answer.
Response: 74

Request: Please indicate inhibition recorded for CCOc1ccc(-c2cccn2-c2cc(OC)c(OC)c(OC)c2)cc1Cl
Response: 68

P. CCOc1ccc(-c2c[nH]cc2-c2cc(OC)c(OC)c(OC)c2)cc1F
Q. COc1cc(-c2cccn2-c2ccc(C)cc2)cc(OC)c1OC
Request: Exercise: compare P and Q ; which one has the greater inhibition? Please identify the chosen entry by its label.
Response: P
(P: 93%, Q: 55%)

P. COc1ccc(-c2cccn2-c2cc(OC)c(OC)c(OC)c2)cc1F
Q. CCOc1ccc(-c2c[nH]cc2-c2cc(OC)c(OC)c(OC)c2)cc1
Request: Smaller inhibition value? Options are P and Q Write down the label of the entry you select.
Response: P

====

Tested on: CCRF-CEM
Test: Antiproliferative activity against human CCRF-CEM cells assessed as reduction in cell viability after 72 hrs by MTT assay
Type: functional, cell-based
PROPERTY NAME: IC50 (nM)

Request: Please respond with reported IC50 (system CCRF-CEM) for COc1ccc(-c2c[nH]cc2-c2cc(OC)c(OC)c(OC)c2)cc1Cl .
Response: 280

Request: Name the value of IC50 reported for COc1ccc(/C=C\c2cc(OC)c(OC)c(OC)c2)cc1O [COMBRETASTATIN A4] when tested on CCRF-CEM.
Response: 2

a. CCOc1ccc(-c2cccn2-c2cc(OC)c(OC)c(OC)c2)cc1Cl
b. COc1cc(-c2c[nH]cc2-c2ccc(C(F)(F)F)cc2)cc(OC)c1OC
Request: Please state the entry with greater IC50 among a and b . Respond using the label that marks the chosen record.
Response: a
